- target-desc: Neurogenic locus notch homolog protein 3 (Homo sapiens) (UniProt Q9UM47)
- Sequence (Q9UM47 whole entry, looked up): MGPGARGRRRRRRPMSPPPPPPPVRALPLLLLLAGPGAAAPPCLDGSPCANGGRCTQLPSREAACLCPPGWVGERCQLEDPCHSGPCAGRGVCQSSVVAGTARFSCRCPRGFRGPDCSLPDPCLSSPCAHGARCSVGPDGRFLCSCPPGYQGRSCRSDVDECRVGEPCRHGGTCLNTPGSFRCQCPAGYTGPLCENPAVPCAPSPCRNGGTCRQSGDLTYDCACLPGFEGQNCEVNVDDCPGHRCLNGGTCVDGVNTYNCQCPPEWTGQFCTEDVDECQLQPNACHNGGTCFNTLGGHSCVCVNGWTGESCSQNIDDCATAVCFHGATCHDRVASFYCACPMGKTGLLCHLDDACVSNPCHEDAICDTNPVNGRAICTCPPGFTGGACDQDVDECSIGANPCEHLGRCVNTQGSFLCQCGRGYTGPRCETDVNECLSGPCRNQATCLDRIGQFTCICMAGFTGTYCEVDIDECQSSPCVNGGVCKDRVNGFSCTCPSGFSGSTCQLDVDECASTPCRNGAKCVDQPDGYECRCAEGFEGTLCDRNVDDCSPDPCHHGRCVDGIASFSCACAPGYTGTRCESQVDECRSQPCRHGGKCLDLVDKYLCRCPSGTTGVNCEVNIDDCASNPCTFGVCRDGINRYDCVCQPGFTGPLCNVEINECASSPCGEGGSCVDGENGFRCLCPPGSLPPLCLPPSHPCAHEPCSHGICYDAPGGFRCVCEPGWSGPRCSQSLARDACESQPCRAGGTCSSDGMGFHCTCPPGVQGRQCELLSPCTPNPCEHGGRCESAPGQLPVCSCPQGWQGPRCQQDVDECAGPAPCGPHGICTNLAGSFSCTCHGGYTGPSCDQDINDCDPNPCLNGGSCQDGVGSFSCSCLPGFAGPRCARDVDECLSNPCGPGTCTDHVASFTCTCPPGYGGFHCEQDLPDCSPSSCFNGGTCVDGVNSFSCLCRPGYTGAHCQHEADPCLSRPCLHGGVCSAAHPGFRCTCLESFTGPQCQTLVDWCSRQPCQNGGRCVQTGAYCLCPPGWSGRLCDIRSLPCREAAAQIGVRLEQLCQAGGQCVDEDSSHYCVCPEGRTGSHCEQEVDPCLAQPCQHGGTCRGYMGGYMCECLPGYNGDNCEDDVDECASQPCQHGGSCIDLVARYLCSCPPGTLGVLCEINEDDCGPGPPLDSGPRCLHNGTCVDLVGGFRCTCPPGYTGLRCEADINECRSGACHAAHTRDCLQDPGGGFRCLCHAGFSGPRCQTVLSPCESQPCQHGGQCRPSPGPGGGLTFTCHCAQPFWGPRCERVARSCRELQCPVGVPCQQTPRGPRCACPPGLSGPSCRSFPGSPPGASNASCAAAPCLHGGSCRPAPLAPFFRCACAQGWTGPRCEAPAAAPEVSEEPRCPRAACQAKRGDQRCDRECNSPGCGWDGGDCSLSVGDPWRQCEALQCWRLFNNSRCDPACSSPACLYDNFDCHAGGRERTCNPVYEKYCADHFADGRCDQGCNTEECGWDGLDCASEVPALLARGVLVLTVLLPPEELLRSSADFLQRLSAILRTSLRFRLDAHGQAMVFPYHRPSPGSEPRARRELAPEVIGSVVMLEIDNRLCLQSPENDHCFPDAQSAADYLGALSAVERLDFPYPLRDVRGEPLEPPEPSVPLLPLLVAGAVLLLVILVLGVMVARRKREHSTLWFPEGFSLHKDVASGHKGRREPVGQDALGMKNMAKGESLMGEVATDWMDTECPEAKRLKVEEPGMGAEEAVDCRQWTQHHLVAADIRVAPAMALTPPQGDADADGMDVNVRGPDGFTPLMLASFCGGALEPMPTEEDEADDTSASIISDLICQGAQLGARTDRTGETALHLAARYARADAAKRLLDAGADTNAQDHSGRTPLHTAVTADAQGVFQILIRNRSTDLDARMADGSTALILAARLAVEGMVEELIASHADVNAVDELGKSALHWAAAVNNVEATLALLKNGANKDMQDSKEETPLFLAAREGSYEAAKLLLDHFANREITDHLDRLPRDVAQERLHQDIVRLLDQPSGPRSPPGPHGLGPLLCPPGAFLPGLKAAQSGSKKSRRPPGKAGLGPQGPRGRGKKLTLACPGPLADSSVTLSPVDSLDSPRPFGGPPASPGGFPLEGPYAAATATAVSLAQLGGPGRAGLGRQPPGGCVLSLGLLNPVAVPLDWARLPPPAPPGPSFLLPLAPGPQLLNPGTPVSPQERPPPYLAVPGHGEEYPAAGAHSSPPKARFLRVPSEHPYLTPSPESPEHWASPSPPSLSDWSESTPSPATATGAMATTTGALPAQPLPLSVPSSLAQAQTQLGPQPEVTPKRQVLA
- assay-notes: NOTCH3 binders on small-molecule microarray, primary screen, biochemical, 635/667 nm fluorescence (AID 1096)
- test-parameters: NOTCH3 binding, 635 nm fluorescence, higher = more signal
measured-metric: composite z-score
// response body must contain only the number

{"compound": "CON=CC[C@@H]1C=C[C@H](OC(C)=O)[C@@H](COC(C)=O)O1", "target-desc": "Neurogenic locus notch homolog protein 3 (Homo sapiens) (UniProt Q9UM47)", "composite z-score": -0.0592}
{"compound": "CC(C)(C)N1C(=O)[C@H]2[C@H]3[C@H](O)[C@H](O)CC(=NO[C@@H]4O[C@H](CO)[C@@H](O)[C@H](O)[C@H]4O)[C@H]3CC[C@H]2C1=O", "target-desc": "Neurogenic locus notch homolog protein 3 (Homo sapiens) (UniProt Q9UM47)", "composite z-score": 0.155}
{"compound": "CC(CCN1CCCCc2nc(C)c(C)cc21)=NOC[C@@H](C)[C@H](OCc1ccccc1)C(C)C", "target-desc": "Neurogenic locus notch homolog protein 3 (Homo sapiens) (UniProt Q9UM47)", "composite z-score": -1.53}

// switching to the query compound
So, CCOC(=O)[C@H](Cc1ccccc1)NC(=O)OC1CC(CCC2CC(CC)=NO2)OC2(CCCC(COC(=O)NCCC(C)C)O2)C1 (some centres undefined) ? Its composite z-score was -0.0258
